Data provenance is patent US20210292423A1.

target: T1, human CD3ε expressed alone on HEK293F cells (human, UniProt P07766 23-207); assay: flow cytometry, transfected HEK293F
T1 construct: also called huCD3ε
T1 sequence (P07766 23-207): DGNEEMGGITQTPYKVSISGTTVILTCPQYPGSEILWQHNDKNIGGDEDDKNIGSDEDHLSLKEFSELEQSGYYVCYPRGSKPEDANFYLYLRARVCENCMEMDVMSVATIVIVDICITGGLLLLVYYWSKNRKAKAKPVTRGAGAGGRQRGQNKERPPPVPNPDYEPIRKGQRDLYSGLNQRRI
// % antibody positive transfected cells lookup, one value per entry
// note: answer is a bare numeric in %

Below are worked cases with known answers.
{"columns": ["binder", "% antibody positive transfected cells [%]"],
 "data": [
  ["13H2-C2 Fab (Fab, V domains shown, also called 13H2-C3) VH: EEELVETGGSLVQPGKSLKLTCATSGFTFSNAWMHWVRQSPDKQLEWVAQIKAKSNNYATYYAESVKGRFTISRDDSKSSVYLQMNNLKEEDTAIYYCRYVHYGLAPMDAWGQGTSVTVSS VL: DVVMTQTPVSLSVSLGGQVSISCRSSQSLVHNNGNTYLSWYLQKAGQSPQLLIYKVSNRFSGISDRFSGSGSGTDFILKISRVEPDDLGVFYCGQGTQYPFTFGAGTKLELK", 93.3],
  ["18F5-H10 Fab (Fab, V domains shown, also called BDX-18F5-H10) VH: EVQVVETGGSLVQPGKSLKLTCATSGFTFTNAWMHWVRRSPEKQLEWVAQIKDKSNNYATYYAESVKGRFTISRDDSKSSIYLQMNSLKEEDTAIYYCRYVHYRFAYALDAWGRGTSVSVSS VL: DVLMTQTPVSLSVSLGGQVSISCRSSQSLVHTNGNTYLSWYLQKPGQSPQLLIYKVSNRLSGISDRFSGSGSGTDFTLKISRVEPDDLGVYYCGQGTHYPFTFGAGTKLELKR", 70.6],
  ["1E6-C9 Fab (Fab, V domains shown, also called 1E6-B8; 1E6-B8/B9-C9-Fab) VH: EVQLVETGGSLVQPGKSLKLTCATSGFTFSYAWMHWVRQSPDKQLQWVAQIKAKSNNYATYYAESVEGRFTISRDDSKSSVYLQMNSLKEEDTAIYYCRGVYYGLLGLDAWGQGTSVTVSS VL: DVVMTQTPVSLSVRLGGQVSISCRSSQSLVHNNGNTYLSWFLQKPGQSPQLLIYKVSNRFSGISDRFSGSASGTDFTLKISRVEPDDLGVYYCGQGTHYPFTFGSGTKLEIK", 87.7],
  ["20G6-F3 Fab (Fab, V domains shown, also called BDW-20G6-F3) VH: EVQLVETGGSLVQPGKSLKLTCATSGFTFTKAWMHWVRQSPEKQLEWVAQIKDKSNSYATYYAESVKGRFTISRDDSKSTIYLQMNSLKEEDTAIYYCRGVYYALSPFDYWGQGVMVTVSS VL: DVVMTQTPVSLSVSLGGQVSISCRSSQSLVHNNGNTYLSWYLQKPGQSPQSLIYKVSNRFSGFSDRFSGSGSGTDFTLKISRVDPDDLGVYYCGQGTQYPFTFGSGTKLEIKR", 68.6]
]}

Data request: Report % antibody positive transfected cells for 20E5-F10 Fab (Fab, V domains shown, also called 20E5-F10-huFab) VH: EVQLVETGENLVQPGKSLRLTCATSGFSFSNAWMHWIRQSPEKQLEWVAQIKDKSNNYATYYAESVNGRFTISRDDSKSSIYLHMDNLKEEDSAIYYCRYVHYGVRFFYTMDVWGQGTSVTVSS VL: DVVMTQTPVSLSVSLGDQVSISCRPSQSLVHNNGNTYLSWYLQKPGQSPHPLIYKVSNRFSGISDRFSGSGSGTDFTLKISRVEPDDLGVYYCGQGTQYPFTFGSGTKLEIK please.
Data returned: 96.7
